Biological target: caspase-6 (Homo sapiens)
Sequence (P55212 24-293): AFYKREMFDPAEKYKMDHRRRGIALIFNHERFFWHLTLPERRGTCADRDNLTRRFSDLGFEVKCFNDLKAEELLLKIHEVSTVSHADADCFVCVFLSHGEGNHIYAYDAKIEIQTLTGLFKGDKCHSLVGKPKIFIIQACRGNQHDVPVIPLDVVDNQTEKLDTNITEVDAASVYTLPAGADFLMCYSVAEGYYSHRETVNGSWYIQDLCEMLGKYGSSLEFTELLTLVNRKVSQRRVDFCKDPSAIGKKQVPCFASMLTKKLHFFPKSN
Assay: VEIDase activity of purified caspase-6 (z-VEID-Glo, luminescence)
Type: biochemical
Conditions: 1 nM Caspase-6, 5 µM z-VEID-Glo, 30 min; read-out: IC50, inhibition of VEIDase activity of purified caspase-6
Experimental: FIGS. 1A-1B. FIG. 1A: Compound SU20667-0134-01 inhibits VEIDase activity of purified caspase-6 (IC50 = 10 nM). Assay method: 1 nM Caspase-6, 5 µM z-VEID-Glo, and various compound doses are mixed. After 30 min, luciferase detection reagent is added and the plate is read on a luminometer. In FIG. 1A, axis lable “0134-01” refers to compound SU20667-0134-01. […]
attribute.measured: pIC50
// field semantics: pIC50 = negative decimal log of concentration (mol/L)

For the compound shown here, C=CS(=O)(=O)N[C@@H]1CCCN(Cc2nc3cc(OC(F)(F)F)c(F)cc3[nH]2)C1 , give the reported pIC50.
8.00
